biological target: SARS-CoV-2 nucleocapsid protein (SARS-CoV-2, UniProt P0DTC9 P0DTC9:1-419)
Kd listing for selected binders.
value type: Kd (nM)

binder	value type	value measured
N11 (ssDNA) DNA: TAACCACATAACCGCAAGACGACGCGATACAAAACACTACTAATCTCTCGTCGCACTAGTATTGTGCTACTCTCCTCGT	Kd	29.6
N06 (ssDNA) DNA: TAACCACATAACCGCAAGATCCCGATAGACCCGCGTCTCATGTACCTTACATGCTACGATATTGTGCTACTCTCCTCGT	Kd	25.1
N08 (ssDNA) DNA: TAACCACATAACCGCAAGACCACACGCACGAAAACAATTGACATGAAATTTACGGCTCTTATTGTGCTACTCTCCTCGT	Kd	18.7
